Numbers sourced from ChEMBL document CHEMBL5724914.

# experimentalConditions: human gut metagenome, 24 h, 2 µM; also: call rule not given here
reportedMetric: Bacterial Biotransformation

1) Cc1ccnc2c1NC(=O)c1cccnc1N2C1CC1 : Compound NOT metabolized
2) Br.CN(C)CCCC1(c2ccc(F)cc2)OCc2cc(C#N)ccc21 (stereo not given) [CITALOPRAM HYDROBROMIDE] : Compound NOT metabolized
3) OC(CCN1CCCCC1)(c1ccccc1)C1CC2C=CC1C2 (stereo not given) : Compound NOT metabolized
4) COC(=O)[C@H]1[C@H]2C[C@@H]3c4[nH]c5cc(OC)ccc5c4CCN3C[C@H]2C[C@@H](OC(=O)c2cc(OC)c(OC)c(OC)c2)[C@@H]1OC : Compound NOT metabolized
5) CN1CCOC(c2ccccc2)c2ccccc2C1 (stereo not given) : Compound NOT metabolized
6) Cc1nc(-c2ccc(OCC(C)C)c(C#N)c2)sc1C(=O)O : Compound metabolized
7) COc1c(C)c2c(c(O)c1C/C=C(\C)CCC(=O)OCCN1CCOCC1)C(=O)OC2 [MYCOPHENOLATE MOFETIL] : Compound metabolized
8) Cc1cc2c(cc1S(N)(=O)=O)S(=O)(=O)CCC2 : Compound NOT metabolized
9) O=C(O)CCc1nc(-c2ccccc2)c(-c2ccccc2)o1 : Compound metabolized
10) CN1CCc2c(c3ccccc3n2Cc2ccccc2)C1.CN1CCc2c(c3ccccc3n2Cc2ccccc2)C1.O=S(=O)(O)c1cccc2c(S(=O)(=O)O)cccc12 : Compound NOT metabolized
11) CCc1nn(CCCN2CCN(c3cccc(Cl)c3)CC2)c(=O)n1CCOc1ccccc1 : Compound NOT metabolized
12) CC(C)NCC(O)c1ccc(NS(C)(=O)=O)cc1 (stereo not given) : Compound NOT metabolized
13) CN(C(=O)CN(CCO)CC(=O)N(C)C(C)(C)Cc1ccccc1)C(C)(C)Cc1ccccc1 : Compound NOT metabolized
14) CCCc1nc(C(C)(C)O)c(C(=O)OCc2oc(=O)oc2C)n1Cc1ccc(-c2ccccc2-c2nnn[nH]2)cc1 : Compound metabolized
15) C=CCN1CC[C@]23c4c5ccc(O)c4O[C@H]2C(=O)CC[C@@]3(O)[C@H]1C5 : Compound NOT metabolized
16) CC(C)c1c(C(=O)Nc2ccccc2)c(-c2ccccc2)c(-c2ccc(F)cc2)n1CC[C@@H](O)C[C@@H](O)CC(=O)O : Compound metabolized
17) CCN(CC)CCOCCOC(=O)C1(c2ccccc2)CCCC1.O=C(O)CC(O)(CC(=O)O)C(=O)O [CARBETAPENTANE CITRATE] : Compound NOT metabolized
18) CC(=O)OCC(=O)[C@@]1(O)[C@@H](C)C[C@H]2[C@@H]3CCC4=CC(=O)C=C[C@]4(C)[C@@]3(F)[C@@H](O)C[C@@]21C [BETAMETHASONE ACETATE] : Compound metabolized
19) CNS(=O)(=O)Cc1ccc2[nH]cc(CCN(C)C)c2c1.O=C(O)CCC(=O)O [SUMATRIPTAN SUCCINATE] : Compound NOT metabolized
20) O=C(NCc1ccccc1)OCCO [BURAMATE] : Compound NOT metabolized
21) CCc1nc(N)nc(N)c1-c1ccc(Cl)cc1 : Compound NOT metabolized
22) NC(CO)(CO)CO.O=C(c1ccccc1)c1ccc2n1CCC2C(=O)O (stereo not given) : Compound metabolized
23) CCOC(=O)[C@H](CCc1ccccc1)N[C@H]1CCc2ccccc2N(CC(=O)O)C1=O : Compound metabolized
24) CCCCC1=NC2(CCCC2)C(=O)N1Cc1ccc(-c2ccccc2-c2nnn[nH]2)cc1 : Compound metabolized
25) CCN(CC)CCOC(=O)C(Cc1cccc2ccccc12)CC1CCCO1.O=C(O)C(=O)O (stereo not given) [NAFRONYL OXALATE] : Compound NOT metabolized
